tested on: U2OS; experiment: Multiplex assay against U2OS; type: toxicity, cell-based; conditions: human, 12 h, 1 µM, compound concentration 1 uM
reported-endpoint: Population Hoechst High Intensity Objects (%)

compound	number
Cn1ncnc1COc1nn2c(-c3cc(F)ccc3F)nnc2cc1C(C)(C)C	0
Cc1c(CC(=O)O)c2cccnc2n1Cc1ccc(S(C)(=O)=O)cc1C(F)(F)F	1
Cc1cc(Nc2ncc(Cl)c(Nc3ccccc3S(=O)(=O)C(C)C)n2)c(OC(C)C)cc1C1CCNCC1	0
CC(C)(O)c1cnc(N2C[C@@]3(CCC[C@](C)(Cn4cnc5ccc(C#N)cc54)C3)OC2=O)cn1	0
CCOC(=O)c1cnn(-c2ccc(NC(=O)C(Cl)=C(Cl)Cl)cc2)c1C(F)(F)F	0
CN1CCN(c2ccc(Nc3c4ccccc4nc4ccccc34)cc2)CC1.Cl.Cl.O	0
CN1C[C@H](C(=O)N[C@]2(C)O[C@@]3(O)[C@@H]4CCCN4C(=O)[C@H](Cc4ccccc4)N3C2=O)C[C@@H]2c3cccc4[nH]cc(c34)C[C@H]21.CS(=O)(=O)O [DIHYDROERGOTAMINE MESYLATE]	1
Cc1cc(C)cc(C(=O)NOCCCCCC(=O)NO)c1	0

src = ChEMBL document CHEMBL5724801
